# Read-out: CD40, CD40 (gene 958)
# Experiment summary: BSK_LPS_CD40: BioMAP Diversity Plus: LPS Assay for CD40 Biomarker Activity (AID 2283076)
# Study conditions: primary human HUVEC with PBMC; actives raise or lower the signal
# Procedure: BSK_LPS is a cell-based, multiplexed-readout assay that uses umbilical vein endothelium and peripheral blood mononuclear cells, a human vascular primary cell co-culture, with measurements taken at 24 hours after chemical dosing in a 96-well plate.BSK_LPS_CD40 is an assay component measured in the BSK_LPS assay. It measures CD40 antibody related to regulation of gene expression using ELISA technology.Data from the assay component BSK_LPS_CD40 was analyzed into 1 assay endpoint. […]
Active and inactive are the calls of the source. How the source made its calls: active means hit-call score of the fitted dose curve at least 0.9, where 1 is the maximum; inactive means score below 0.9.
Labels: active, inactive

molecule=COc1cc(OC)nc(NC(=O)NS(=O)(=O)Nc2ccccc2C(=O)N(C)C)n1 group_label=inactive
molecule=O=C(O)CCC(F)(F)C(F)(F)C(F)(F)C(F)(F)C(F)(F)F group_label=inactive
molecule=O=C1OC2(c3ccccc31)c1cc(I)c(O)c(I)c1Oc1c2cc(I)c(O)c1I group_label=active
molecule=Cc1ccc(N=Nc2c(O)ccc3ccccc23)c(C)c1 group_label=inactive
molecule=CCCCCCCCCCCCOS(=O)(=O)O group_label=inactive
molecule=CN(C)CCOC(c1ccccc1)c1ccccc1 group_label=inactive
molecule=COC1=CC(=O)C[C@@H](C)[C@]12Oc1c(Cl)c(OC)cc(OC)c1C2=O group_label=inactive
molecule=O=C(NO)c1ccccc1 group_label=inactive
molecule=CC[N+](CC)(CC)Cc1ccccc1 group_label=inactive
molecule="CCCCC(CC)C(=O)OCCOCCOCCOCCOC(=O)C(CC)CCCC (centres undefined)" group_label=inactive
molecule="CCCCC(CC)C(=O)O (centres undefined)" group_label=inactive
molecule=COc1cccc(O)c1 group_label=inactive
molecule=CCCCCCCCCCCCCCCCCC[N+](C)(C)Cc1ccccc1 group_label=active
molecule=Clc1ccc(Nc2nnc(Cc3ccncc3)c3ccccc23)cc1 group_label=inactive
molecule=CC1=NN(c2ccccc2)C(=O)C1 group_label=inactive
molecule=C[C@]12CC[C@@H]3c4ccc(O)cc4CC[C@H]3[C@@H]1C[C@@H](O)[C@@H]2O group_label=inactive
molecule=CCCCCc1ccc(O)cc1 group_label=active
molecule="C=CC(C)(CCC=C(C)C)OC(C)=O (centres undefined)" group_label=inactive
molecule=O=C(c1ccccc1)c1ccccc1 group_label=inactive
molecule=OCC(CO)(CBr)CBr group_label=inactive
molecule=O=C1c2ccc(O)c(O)c2C(=O)c2c(O)ccc(O)c21 group_label=inactive
molecule=NC(=NCCCCCCN=C(N)/N=C(\N)Nc1ccc(Cl)cc1)/N=C(\N)Nc1ccc(Cl)cc1 group_label=active
molecule=CCOC(=O)CN[C@@H](C(=O)N1CC[C@H]1C(=O)NCc1ccc(/C(N)=N/O)cc1)C1CCCCC1 group_label=inactive
molecule=CC(=O)Nc1ccc(O)cc1 group_label=inactive

====

# Measured on: mouse Estrogen Receptor alpha (Era), Esr1 (gene 13982) (UniProt P19785)
# Sequence (P19785 whole entry, looked up): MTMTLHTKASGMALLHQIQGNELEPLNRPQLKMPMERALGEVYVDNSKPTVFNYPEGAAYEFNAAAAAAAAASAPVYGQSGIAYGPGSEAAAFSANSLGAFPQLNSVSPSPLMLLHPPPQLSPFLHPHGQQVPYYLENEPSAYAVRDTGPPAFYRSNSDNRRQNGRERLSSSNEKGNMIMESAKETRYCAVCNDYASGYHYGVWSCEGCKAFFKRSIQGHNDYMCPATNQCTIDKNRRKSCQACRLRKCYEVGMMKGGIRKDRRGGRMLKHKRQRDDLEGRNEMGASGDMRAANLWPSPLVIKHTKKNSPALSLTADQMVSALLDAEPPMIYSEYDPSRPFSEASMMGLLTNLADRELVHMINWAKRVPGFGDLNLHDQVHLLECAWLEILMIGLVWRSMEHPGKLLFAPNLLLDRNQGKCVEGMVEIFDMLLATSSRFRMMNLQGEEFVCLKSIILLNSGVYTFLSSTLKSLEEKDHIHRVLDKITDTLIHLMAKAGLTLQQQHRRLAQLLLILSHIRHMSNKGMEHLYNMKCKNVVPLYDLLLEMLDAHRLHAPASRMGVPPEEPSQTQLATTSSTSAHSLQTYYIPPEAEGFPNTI
# Experiment summary: NVS_NR_mERa: NovaScreen (NVS) Nuclear Receptor Binding Assay for mouse Estrogen Receptor alpha (Era) (AID 2283378);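 further: hit means loss of bound radioligand signal relative to DMSO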
Results filed as inconclusive are left out. Calls of active or inactive are those of the source. How the source made its calls: active means hit-call score of the fitted dose curve at least 0.9, where 1 is the maximum; inconclusive means response in the unintended direction; inactive means score below 0.9.
Outcomes: y for active, n for inactive

compound="C=CC(C)(CCC=C(C)C)OC(C)=O (configuration not stated)" group_label=n
compound=CCCCCCc1ccc(N)cc1 group_label=y
compound=NCc1cccc(CN)c1 group_label=y
compound=CCCCCCCCCCCCOC(=O)c1cc(O)c(O)c(O)c1 group_label=y
compound=CN(Cc1cnc2nc(N)nc(N)c2n1)c1ccc(C(=O)N[C@@H](CCC(=O)O)C(=O)O)cc1 group_label=n
compound=C[C@]12CC[C@@H]3c4ccc(O)cc4CC[C@H]3[C@@H]1CC[C@@H]2OC(=O)CCC1CCCC1 group_label=y
compound=Nc1cc(Cl)c(-c2cc(Cl)c(N)cc2Cl)cc1Cl group_label=y
